From: ChEMBL document CHEMBL1148012

molecular target: Sodium-dependent serotonin transporter (Homo sapiens, UniProt P31645); test: Displacement of [125I]RTI55 from human SERT expressed in COS1 cell membrane; assay type: cell membranes, COS-1
Sequence (P31645 whole entry): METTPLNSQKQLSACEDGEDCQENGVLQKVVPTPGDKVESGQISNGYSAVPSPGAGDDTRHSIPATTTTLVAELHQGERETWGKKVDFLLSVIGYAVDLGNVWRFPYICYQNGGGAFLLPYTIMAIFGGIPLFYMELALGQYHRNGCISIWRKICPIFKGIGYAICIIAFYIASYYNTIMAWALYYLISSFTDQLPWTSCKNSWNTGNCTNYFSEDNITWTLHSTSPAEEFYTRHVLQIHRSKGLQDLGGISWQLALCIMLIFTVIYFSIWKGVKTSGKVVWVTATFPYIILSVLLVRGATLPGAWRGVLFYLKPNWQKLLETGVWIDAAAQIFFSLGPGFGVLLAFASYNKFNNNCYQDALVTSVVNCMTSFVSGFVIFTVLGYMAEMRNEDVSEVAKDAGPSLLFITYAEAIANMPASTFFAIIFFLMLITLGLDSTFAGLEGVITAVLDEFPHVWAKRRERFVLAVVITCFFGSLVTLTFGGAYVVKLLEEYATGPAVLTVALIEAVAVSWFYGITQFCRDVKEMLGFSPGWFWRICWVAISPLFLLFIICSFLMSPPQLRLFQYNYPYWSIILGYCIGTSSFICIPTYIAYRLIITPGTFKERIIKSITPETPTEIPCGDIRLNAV

- compound: "COC(=O)C1=C(c2ccc3ccccc3c2)CCCCC1"
  Ki [µM]: 532
- compound: "COC(=O)C1=C(c2ccc(C(F)(F)F)cc2)CCCC1"
  Ki [µM]: 4710
- compound: "COC(=O)[C@@H]1CN(C)CC[C@@H]1c1ccc(I)cc1 (racemic)"
  Ki [µM]: 0.287
- compound: "COC(=O)[C@@H]1CCCC[C@@H]1c1cccc(C(F)(F)F)c1"
  Ki [µM]: 1910
- compound: "CCOC(=O)C1=C(c2ccc3ccccc3c2)CCNC1"
  Ki [µM]: 0.44
- compound: "COC(=O)C1=C(c2ccc3ccccc3c2)CCCC1"
  Ki [µM]: 109
- compound: "COC(=O)[C@@H]1CCCC[C@@H]1c1ccc(-c2ccccc2)cc1"
  Ki [µM]: 390
- compound: "COC(=O)C1=C(c2ccc(OC(F)(F)F)cc2)CCCC1"
  Ki [µM]: 4680
- compound: "COC(=O)C1=C(c2cccc(C(F)(F)F)c2)CCCC1"
  Ki [µM]: 5020
- compound: "COC(=O)C1=C(c2ccc3ccccc3c2)CCC1"
  Ki [µM]: 417
- compound: "CCOC(=O)C1=C(c2cccc([N+](=O)[O-])c2)CCNC1"
  Ki [µM]: 3
- compound: "COC(=O)C1=C(c2ccc(Cl)cc2)CCCCC1"
  Ki [µM]: 706

---

biological target: Sodium-dependent noradrenaline transporter (Homo sapiens); test: Inhibition of [3H]DA uptake in human NET expressed in COS1 cell membrane; assay type: functional, cell-based, COS-1
Sequence (P23975 whole entry): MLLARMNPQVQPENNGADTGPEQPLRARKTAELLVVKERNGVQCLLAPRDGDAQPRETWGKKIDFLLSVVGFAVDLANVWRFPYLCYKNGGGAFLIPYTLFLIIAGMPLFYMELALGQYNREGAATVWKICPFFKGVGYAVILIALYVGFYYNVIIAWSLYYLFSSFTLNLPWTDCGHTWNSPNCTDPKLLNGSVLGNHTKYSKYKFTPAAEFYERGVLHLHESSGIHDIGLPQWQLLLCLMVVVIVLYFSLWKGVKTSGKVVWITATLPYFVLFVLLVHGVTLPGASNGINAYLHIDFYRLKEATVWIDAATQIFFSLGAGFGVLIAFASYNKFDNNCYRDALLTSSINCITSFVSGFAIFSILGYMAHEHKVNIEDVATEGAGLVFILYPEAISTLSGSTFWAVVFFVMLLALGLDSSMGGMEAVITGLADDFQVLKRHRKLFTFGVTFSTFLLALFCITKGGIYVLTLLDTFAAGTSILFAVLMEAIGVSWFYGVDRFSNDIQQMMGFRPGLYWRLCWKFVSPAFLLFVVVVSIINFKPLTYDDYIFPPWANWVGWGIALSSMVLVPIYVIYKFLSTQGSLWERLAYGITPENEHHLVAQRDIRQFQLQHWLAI
pKi: −log10 of the molar value.
Label False if pKi falls below 5; label True in every other case.

- structure_notation: "COC(=O)C1=C(c2ccc(OC)cc2)CCC1"
  discrete_label: "False"
- structure_notation: "COC(=O)[C@H]1[C@@H](c2ccc(I)cc2)C[C@H]2CC[C@@H]1N2C"
  discrete_label: "True"
- structure_notation: "COC(=O)C1=C(c2ccc(Cl)cc2)CCCC1"
  discrete_label: "False"
- structure_notation: "COC(=O)C1=C(c2cccc(N)c2)CCC1"
  discrete_label: "False"
- structure_notation: "COC(=O)C1=C(c2ccc(Cl)cc2)CCC1"
  discrete_label: "False"
- structure_notation: "COC(=O)C1=C(c2ccc(Cl)c(Cl)c2)CCC1"
  discrete_label: "False"
- structure_notation: "COC(=O)C1=C(c2cccc(Cl)c2)CCC1"
  discrete_label: "False"
- structure_notation: "COC(=O)C1=C(c2cccc(Cl)c2)CCCC1"
  discrete_label: "False"
- structure_notation: "COC(=O)C1=C(c2ccc3ccccc3c2)CCC1"
  discrete_label: "False"
- structure_notation: "COC(=O)C1=C(c2ccc(-c3ccccc3)cc2)CCCCC1"
  discrete_label: "True"
- structure_notation: "COC(=O)C1=C(c2ccc(C(C)=O)cc2)CCC1"
  discrete_label: "False"
- structure_notation: "COC(=O)C1=C(c2ccc(O)cc2)CCCC1"
  discrete_label: "False"
- structure_notation: "COC(=O)C1=C(c2ccc(Cl)cc2)CCCCC1"
  discrete_label: "False"
- structure_notation: "COC(=O)C1=C(c2ccc(Cl)c(Cl)c2)CCCCC1"
  discrete_label: "True"
- structure_notation: "COC(=O)C1=C(c2ccc(Cl)c(Cl)c2)CCCC1"
  discrete_label: "True"

---

target: UniProt:P23975; experiment: Displacement of [125I]RTI55 from human NET expressed in COS1 cell membrane; assay type: cell membranes, COS-1
pKi: −log10 of the molar value.
Label not fulfilled if pKi falls below 5; label fulfilled in every other case.

- molecule: "COC(=O)[C@@H]1CN(C)CC[C@@H]1c1ccc(Cl)c(Cl)c1 (stereo in doubt; 3a)"
  assayed_target: "UniProt:P23975"
  discrete_label: "fulfilled"
- molecule: "COC(=O)C1=C(c2cccc(Cl)c2)CCC1"
  assayed_target: "UniProt:P23975"
  discrete_label: "not fulfilled"
- molecule: "COC(=O)C1=C(c2ccc([N+](=O)[O-])cc2)CCC1"
  assayed_target: "UniProt:P23975"
  discrete_label: "not fulfilled"
- molecule: "COC(=O)[C@H]1[C@@H](c2ccc(I)cc2)C[C@H]2CC[C@@H]1N2C"
  assayed_target: "UniProt:P23975"
  discrete_label: "fulfilled"
- molecule: "COC(=O)C1=C(c2cccc(C(F)(F)F)c2)CCCC1"
  assayed_target: "UniProt:P23975"
  discrete_label: "not fulfilled"

---

target: Sodium-dependent serotonin transporter (Homo sapiens, UniProt P31645); test: Displacement of [125I]RTI55 from human SERT expressed in COS1 cell membrane; assay type: cell membranes, COS-1
Quick reference for Ki among some compounds

- structure_notation: "COC(=O)C1=C(c2ccc(Cl)c(Cl)c2)CCC1"
  Ki, µM: 785
- structure_notation: "COC(=O)C1=C(c2ccc(Cl)c(Cl)c2)CCCCC1"
  Ki, µM: 149
- structure_notation: "COC(=O)C1=C(c2ccc(Cl)cc2)CCCC1"
  Ki, µM: 1860
- structure_notation: "COC(=O)c1ccccc1-c1ccc2ccccc2c1"
  Ki, µM: 620

---

target: Sodium-dependent serotonin transporter (Homo sapiens, UniProt P31645); assay: Displacement of [125I]RTI55 from human SERT expressed in COS1 cell membrane; format: cell membranes, COS-1
Assign a class from recorded Ki; defined classes: low group: < 300 µM; middle group: ≥ 300 µM and < 1000 µM; high group: ≥ 1000 µM

- compound: "CCOC(=O)C1=C(c2ccc(Cl)c(Cl)c2)CCNC1"
  assayed_target: "Sodium-dependent serotonin transporter (Homo sapiens, UniProt P31645)"
  discrete_label: "low group"
- compound: "COC(=O)C1=C(c2ccc([N+](=O)[O-])cc2)CCC1"
  assayed_target: "Sodium-dependent serotonin transporter (Homo sapiens, UniProt P31645)"
  discrete_label: "high group"
- compound: "COC(=O)C1=C(c2ccc(Cl)c(Cl)c2)CCCC1"
  assayed_target: "Sodium-dependent serotonin transporter (Homo sapiens, UniProt P31645)"
  discrete_label: "low group"
- compound: "COC(=O)C1=C(c2cccc(N)c2)CCC1"
  assayed_target: "Sodium-dependent serotonin transporter (Homo sapiens, UniProt P31645)"
  discrete_label: "high group"
- compound: "COC(=O)C1=C(c2ccc(-c3ccccc3)cc2)CCCCC1"
  assayed_target: "Sodium-dependent serotonin transporter (Homo sapiens, UniProt P31645)"
  discrete_label: "low group"
- compound: "COC(=O)C1=C(c2cccc(Cl)c2)CCCCC1"
  assayed_target: "Sodium-dependent serotonin transporter (Homo sapiens, UniProt P31645)"
  discrete_label: "middle group"
- compound: "COC(=O)[C@@H]1CN(C)CC[C@H]1c1ccccc1 (racemic)"
  assayed_target: "Sodium-dependent serotonin transporter (Homo sapiens, UniProt P31645)"
  discrete_label: "low group"
- compound: "COC(=O)C1=C(c2ccc(O)cc2)CCCC1"
  assayed_target: "Sodium-dependent serotonin transporter (Homo sapiens, UniProt P31645)"
  discrete_label: "middle group"
- compound: "C/C=C/C1=C(c2ccc(Cl)c(Cl)c2)CCCC1"
  assayed_target: "Sodium-dependent serotonin transporter (Homo sapiens, UniProt P31645)"
  discrete_label: "middle group"
- compound: "COC(=O)[C@@H]1CN(C)CC[C@@H]1c1ccccc1 (racemic)"
  assayed_target: "Sodium-dependent serotonin transporter (Homo sapiens, UniProt P31645)"
  discrete_label: "low group"
- compound: "COC(=O)C1=C(c2cccc([N+](=O)[O-])c2)CCCC1"
  assayed_target: "Sodium-dependent serotonin transporter (Homo sapiens, UniProt P31645)"
  discrete_label: "low group"
- compound: "COC(=O)[C@@H]1CCCC[C@@H]1c1ccc(OC(F)(F)F)cc1"
  assayed_target: "Sodium-dependent serotonin transporter (Homo sapiens, UniProt P31645)"
  discrete_label: "middle group"
- compound: "COC(=O)[C@@H]1CCCC[C@@H]1c1ccc(C(C)(C)C)cc1"
  assayed_target: "Sodium-dependent serotonin transporter (Homo sapiens, UniProt P31645)"
  discrete_label: "high group"
- compound: "COC(=O)C1=C(c2ccc(S(C)(=O)=O)cc2)CCC1"
  assayed_target: "Sodium-dependent serotonin transporter (Homo sapiens, UniProt P31645)"
  discrete_label: "high group"
- compound: "COC(=O)C1=C(c2ccc(OC(F)(F)F)cc2)CCC1"
  assayed_target: "Sodium-dependent serotonin transporter (Homo sapiens, UniProt P31645)"
  discrete_label: "high group"
- compound: "COC(=O)C1=C(c2ccc(C(C)(C)C)cc2)CCC1"
  assayed_target: "Sodium-dependent serotonin transporter (Homo sapiens, UniProt P31645)"
  discrete_label: "high group"
- compound: "COC(=O)C1=C(c2ccc(-c3ccccc3)cc2)CCCC1"
  assayed_target: "Sodium-dependent serotonin transporter (Homo sapiens, UniProt P31645)"
  discrete_label: "middle group"
- compound: "COC(=O)C1=C(c2cccc(Cl)c2)CCC1"
  assayed_target: "Sodium-dependent serotonin transporter (Homo sapiens, UniProt P31645)"
  discrete_label: "high group"
- compound: "COC(=O)C1=C(c2ccccc2)CCCC1"
  assayed_target: "Sodium-dependent serotonin transporter (Homo sapiens, UniProt P31645)"
  discrete_label: "middle group"
- compound: "COC(=O)C1=C(c2ccc(OC)cc2)CCC1"
  assayed_target: "Sodium-dependent serotonin transporter (Homo sapiens, UniProt P31645)"
  discrete_label: "high group"
- compound: "COC(=O)C1=C(c2ccc(C(C)(C)C)cc2)CCCCC1"
  assayed_target: "Sodium-dependent serotonin transporter (Homo sapiens, UniProt P31645)"
  discrete_label: "high group"
- compound: "COC(=O)[C@@H]1CCCC[C@@H]1c1ccc(C(F)(F)F)cc1"
  assayed_target: "Sodium-dependent serotonin transporter (Homo sapiens, UniProt P31645)"
  discrete_label: "low group"
- compound: "COC(=O)[C@@H]1CCCCC[C@@H]1c1ccc(-c2ccccc2)cc1"
  assayed_target: "Sodium-dependent serotonin transporter (Homo sapiens, UniProt P31645)"
  discrete_label: "low group"
- compound: "COC(=O)C1=C(c2ccc(Cl)cc2)CCC1"
  assayed_target: "Sodium-dependent serotonin transporter (Homo sapiens, UniProt P31645)"
  discrete_label: "high group"
